Value source: ChEMBL document CHEMBL4316603

Provide the reported pEC50 of each item.
# TARGET_OR_TEST_SYSTEM: UniProt P11229
# Sequence (P11229 whole entry): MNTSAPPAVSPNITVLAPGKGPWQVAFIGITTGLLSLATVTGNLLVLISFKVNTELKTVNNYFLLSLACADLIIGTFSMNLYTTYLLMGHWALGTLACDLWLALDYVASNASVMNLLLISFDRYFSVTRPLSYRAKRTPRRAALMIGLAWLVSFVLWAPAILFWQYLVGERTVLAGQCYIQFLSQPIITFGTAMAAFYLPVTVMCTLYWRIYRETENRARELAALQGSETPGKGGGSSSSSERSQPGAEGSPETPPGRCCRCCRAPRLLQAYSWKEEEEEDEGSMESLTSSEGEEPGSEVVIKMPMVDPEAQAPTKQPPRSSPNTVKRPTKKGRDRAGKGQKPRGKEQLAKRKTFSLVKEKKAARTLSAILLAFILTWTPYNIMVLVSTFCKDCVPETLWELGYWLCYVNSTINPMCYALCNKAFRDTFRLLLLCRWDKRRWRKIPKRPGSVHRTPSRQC
# METHOD_DESCRIPTION: Agonist activity at human muscarinic M1 receptor expressed in HEK293T cells co-expressing Galpha subunit and PLC-beta3 by split luciferase complementation assay
# Format: cell-based
Respond numerically, and do not add a unit to the figure.

Form field pEC50, entry "C[N+](C)(CC#CCOC1=NOCC1)Cc1cc(F)c(/N=N/c2c(F)cccc2F)c(F)c1.[Br-]" : 7.2

Form: molecule = "C[N+](C)(CC#CCOC1=NOCC1)Cc1cc(F)c(/N=N\c2c(F)cc(C[N+](C)(C)CC#CCOC3=NOCC3)cc2F)c(F)c1.[Br-].[Br-]" ; pEC50 = 8.3

So for "C[N+](C)(CC#CCOC1=NOCC1)Cc1ccc(/N=N\c2ccc(C[N+](C)(C)CC#CCOC3=NOCC3)cc2)cc1.[Br-].[Br-]" , the logged pEC50 turned out to be 7.49

The molecule listed as "C[N+](C)(CC#CCOC1=NOCC1)Cc1ccc(/N=N/c2ccccc2)cc1.[Br-]" has a reported pEC50 of 5.49

pEC50 in this record for "C[N+](C)(CC#CCOC1=NOCC1)Cc1cc(F)c(/N=N/c2c(F)cc(C[N+](C)(C)CC#CCOC3=NOCC3)cc2F)c(F)c1.[Br-].[Br-]" : 8.97

Lab note: measured pEC50 of "C[N+](C)(CC#CCOC1=NOCC1)CCCCCC[N+](C)(C)CC#CCOC1=NOCC1" was 6.77

Sample "C[N+](C)(CC#CCOC1=NOCC1)CCCC[N+](C)(C)CC#CCOC1=NOCC1" ; pEC50 observed: 6.49

Short answer for "C[N+](C)(CC#CCOC1=NOCC1)CCCCCCCCCC[N+](C)(C)CC#CCOC1=NOCC1" : pEC50 was 7.86

// sample "C[N+](C)(CC#CCOC1=NOCC1)Cc1ccc(/N=N\c2ccccc2)cc1.[Br-]" , its pEC50 was 5.68

# pEC50 of "C[N+](C)(CC#CCOC1=NOCC1)Cc1cc(F)c(/N=N\c2c(F)cccc2F)c(F)c1.[Br-]" = 7.14

Measured pEC50 of "C[N+](C)(CC#CCOC1=NOCC1)CCCCCCCC[N+](C)(C)CC#CCOC1=NOCC1" : 6.89

For "C[N+](C)(C)CC#CCOC1=NOCC1" the molecule record lists pEC50 as 8.9
